# assay-system: T1, PCSK9 (proprotein convertase subtilisin/kexin type 9), His-tagged, full-length (human, UniProt Q8NBP7 31-692)
# T1 construct: Captured by the His tag (SPR Methods 1 and 2), amine-coupled (Method 3), or His-tagged in TR-FRET; also called His-PCSK9
# T1 sequence (Q8NBP7 31-692 limits assumed): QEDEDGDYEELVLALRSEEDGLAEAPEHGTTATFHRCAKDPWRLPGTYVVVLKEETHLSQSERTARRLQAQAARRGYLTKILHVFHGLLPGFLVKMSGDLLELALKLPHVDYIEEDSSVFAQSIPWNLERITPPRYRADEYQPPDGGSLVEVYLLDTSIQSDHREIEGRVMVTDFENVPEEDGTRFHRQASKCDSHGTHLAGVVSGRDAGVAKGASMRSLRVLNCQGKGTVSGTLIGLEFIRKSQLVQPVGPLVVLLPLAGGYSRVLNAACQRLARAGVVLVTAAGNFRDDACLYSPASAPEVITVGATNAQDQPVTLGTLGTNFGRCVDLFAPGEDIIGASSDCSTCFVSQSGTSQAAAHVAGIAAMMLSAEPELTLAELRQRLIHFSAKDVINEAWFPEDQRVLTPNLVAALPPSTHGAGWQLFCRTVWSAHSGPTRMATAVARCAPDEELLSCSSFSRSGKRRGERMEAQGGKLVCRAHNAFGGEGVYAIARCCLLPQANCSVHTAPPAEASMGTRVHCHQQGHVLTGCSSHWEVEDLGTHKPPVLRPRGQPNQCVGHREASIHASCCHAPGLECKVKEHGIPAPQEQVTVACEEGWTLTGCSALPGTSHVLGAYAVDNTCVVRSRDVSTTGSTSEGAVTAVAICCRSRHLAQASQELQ
# experiment-description: SPR, Method 1 (Biacore T100, His-tagged target captured on NTA chip)
Bridge positions count the residues as written; N and C are the ends.
observation-type: Kd (µM)
Respond with the bare value in µM.

Quick check: Kd of H-SGCFIPWNLQRIGLLC-NH2 (disulfide 3-16 (inferred), Two Cys, disulfide-cyclized) [Compound 26] ?
29

Quick check: Kd of SGDLMPWNLVRIGLLR (Free N- and C-termini as printed) [Compound 28] ?
46.1

Quick check: Kd of Ac-TVFTSWEEYLDWVGSGCRLPWNLQRIGLPC-NH2 (disulfide 17-30 (inferred), Two Cys, disulfide-cyclized; also called Pep2-8p4; Pep2-8_K9gvpep4) [Compound 19] ?
0.00207

Quick check: Kd of Ac-TVFTSWEEYLDWVGSGDLMPWNLVRIGLLR-NH2 (also called Pep2-8p7; Pep2-8_K9gvpep7) [Compound 20] ?
0.00556

Origin of measurements: patent US20200283478A1
